Hey, just so you know, these numbers are from ChEMBL document CHEMBL1201862.

Test system: PC-3
testMethodNotes: NCI tumour cell line growth inhibition, 48 h
The source made the active and inactive calls. Rule as the data show it: active = GI50 up to about 1.1 µM and inactive = higher.
Outcomes: YES = active, NO = inactive

>  <molecule>
CC(=O)OCc1cc(CCC(=O)NCCNc2c3ccccc3nc3ccccc23)cc(COC(C)=O)c1O[Si](C)(C)C(C)(C)C

>  <assignedLabel>
NO

$$$$
>  <molecule>
CC(=O)NC1(C)CCC(C(C)(C)NC(C)=O)CC1 (stereo not drawn)

>  <assignedLabel>
NO

$$$$
>  <molecule>
O=CC1C(Cl)=Nc2nc3ccccc3n2C1c1ccc([N+](=O)[O-])cc1 (stereo not drawn)

>  <assignedLabel>
NO

$$$$
>  <molecule>
O=C(CC(C(=O)c1cccs1)c1cccs1)c1ccsc1 (stereo not drawn)

>  <assignedLabel>
NO

$$$$
>  <molecule>
CC(=O)OC1CC2c3cccc4c3C(CC2N(C)C1=O)CN4C(=O)c1ccccc1 (stereo not drawn)

>  <assignedLabel>
NO

$$$$
>  <molecule>
O=P(O)(O)CN1CCN(CP(=O)(O)O)CCN(CP(=O)(O)O)CCN(CP(=O)(O)O)CC1

>  <assignedLabel>
NO

$$$$
>  <molecule>
COc1ccc(C(C)c2cc3c(cc2OC)OCO3)cc1 (stereo not drawn)

>  <assignedLabel>
YES

$$$$
>  <molecule>
O=C1C=C(Cl)C(=O)C(c2ccc(Cl)cc2)=C1

>  <assignedLabel>
NO

$$$$
>  <molecule>
COP(=O)(OC)C(Nc1ccc(Cc2ccc(NC(c3ccco3)P(=O)(OC)OC)cc2)cc1)c1ccco1 (stereo not drawn)

>  <assignedLabel>
NO

$$$$
>  <molecule>
Cc1cc(=O)oc2c(CNC(CC(C)C)C(=O)O)c(O)ccc12 (stereo not drawn)

>  <assignedLabel>
NO

$$$$
>  <molecule>
CN(C)C=C1C(=O)c2c(Br)sc(Br)c2C1=O

>  <assignedLabel>
NO

$$$$
>  <molecule>
CN(CCNC(=O)c1nn(-c2ccc(Cl)cc2Cl)c2c1Cc1ccccc1-2)CCNC(=O)c1nn(-c2ccc(Cl)cc2Cl)c2c1Cc1ccccc1-2

>  <assignedLabel>
NO

$$$$
>  <molecule>
NC(=O)c1cc(-c2ccc(-n3ccnc3)cc2)nnc1O

>  <assignedLabel>
NO

$$$$
>  <molecule>
CO/C(N)=C(C#N)/N=C/c1cccnc1

>  <assignedLabel>
NO

$$$$
>  <molecule>
COc1ccccc1NC(=S)N/N=C/c1ccccn1

>  <assignedLabel>
YES

$$$$
>  <molecule>
CC1=NN(c2cccc(S(=O)(=O)O)c2)C2(C1)C(Cl)C(=O)N2c1nc2ccccc2s1 (stereo not drawn)

>  <assignedLabel>
NO

$$$$
>  <molecule>
Cc1nc2c(o1)C(=O)c1ccccc1/C2=N/c1ccc(N2CCOCC2)cc1

>  <assignedLabel>
NO

$$$$
>  <molecule>
CC(C)(CN1CCCCC1)C(/C=C/c1ccc(Cl)c(Cl)c1)=N\NC(=O)N/N=C(/C=C/c1ccc(Cl)c(Cl)c1)C(C)(C)CN1CCCCC1

>  <assignedLabel>
NO

$$$$
>  <molecule>
NS(=O)(=O)c1cccc(NC(=S)NC(=O)Nc2ccc(Cl)c(Cl)c2)c1

>  <assignedLabel>
NO

$$$$
>  <molecule>
CCNC1=C(NC(=O)c2ccc(OC)cc2)C(=O)c2ccccc2C1=O

>  <assignedLabel>
NO

$$$$
>  <molecule>
CN(C(=O)c1ccccc1)C1CCCC(=O)CC1 (stereo not drawn)

>  <assignedLabel>
NO

$$$$
>  <molecule>
CC(NNC(=O)c1cc[n+]([BH2-]C#N)cc1)c1ccccc1 (stereo not drawn)

>  <assignedLabel>
NO

$$$$
>  <molecule>
Cc1cc(S(=O)(=O)Nc2nc(N)n[nH]2)c(Cl)cc1Cl

>  <assignedLabel>
NO

$$$$
>  <molecule>
COc1cc2c3c(cc(Cl)nc3c1OC)C(O)(CC(C)=O)C(=O)N2 (stereo not drawn)

>  <assignedLabel>
NO

$$$$
>  <molecule>
CC1(C)OC2C(O)C(CO)OC2(C(F)F)O1 (stereo not drawn)

>  <assignedLabel>
NO

$$$$
>  <molecule>
COc1ccc(C2CC(c3ccc4ccccc4c3O)=NN2)cc1OC (stereo not drawn)

>  <assignedLabel>
NO

$$$$
>  <molecule>
COC(=O)NC1C(C)OC(OC2C/C=C(/C)C3C=CC4C(OC5CC(OC6CCC(OC7CC(O)C(OC8CCC(O)C(C)O8)C(C)O7)C(C)O6)C(OC(C)=O)C(C)O5)C(C)CC(C)C4C3(C)/C(O)=C3/C(=O)OC4(CC(C=O)=CC(O)C4/C=C\2C)C3=O)CC1(C)[N+](=O)[O-] (stereo not drawn)

>  <assignedLabel>
NO

$$$$
>  <molecule>
COc1ccc2cc(/C=N\NC(=O)Nc3cccc4ccccc34)ccc2c1

>  <assignedLabel>
NO

$$$$
